Data credit: the supplement of paper PMC10307832

Test system: NCI-H2405
method-description: relative viability (nuclei count vs DMSO), 5 days (fraction); higher = more cells survive
experimental-context: first compound 0.01581 µM
Entries and their measured relative viability follow.
measured-attribute: relative viability

compound: Nc1ccn([C@@H]2O[C@H](CO)[C@@H](O)[C@@H]2O)c(=O)n1 [Cytarabine] + O=C(CCCCCCC(=O)Nc1ccccc1)NO [Vorinostat] (partner 1 µM)
readout-value: 0.748
--
compound: Nc1ccn([C@@H]2O[C@H](CO)[C@@H](O)[C@@H]2O)c(=O)n1 [Cytarabine] + NC(=O)Nc1cc(-c2cccc(F)c2)sc1C(=O)N[C@H]1CCCNC1 [AZD7762] (partner 0.2 µM)
readout-value: 0.454
--
compound: COc1cc2nccc(Oc3ccc(NC(=O)Nc4cc(C)on4)c(Cl)c3)c2cc1OC [Tivozanib] + O=C(c1cc(Cc2n[nH]c(=O)c3ccccc23)ccc1F)N1CCN(C(=O)C2CC2)CC1 [Olaparib] (partner 8 µM)
readout-value: 0.95
--
compound: Nc1ccn([C@@H]2O[C@H](CO)[C@@H](O)[C@@H]2O)c(=O)n1 [Cytarabine] + CCNC(=O)c1noc(-c2cc(C(C)C)c(O)cc2O)c1-c1ccc(CN2CCOCC2)cc1 [Luminespib] (partner 0.01 µM)
readout-value: 0.547
--
compound: Nc1ccn([C@@H]2O[C@H](CO)[C@@H](O)[C@@H]2O)c(=O)n1 [Cytarabine] + CC1(C)CCC(c2ccc(Cl)cc2)=C(CN2CCN(c3ccc(C(=O)NS(=O)(=O)c4ccc(N[C@H](CCN5CCOCC5)CSc5ccccc5)c(S(=O)(=O)C(F)(F)F)c4)cc3)CC2)C1 [Navitoclax] (partner 0.5 µM)
readout-value: 0.671
--
compound: COc1cc2nccc(Oc3ccc(NC(=O)Nc4cc(C)on4)c(Cl)c3)c2cc1OC [Tivozanib] + CC1(C)CCC(c2ccc(Cl)cc2)=C(CN2CCN(c3ccc(C(=O)NS(=O)(=O)c4ccc(N[C@H](CCN5CCOCC5)CSc5ccccc5)c(S(=O)(=O)C(F)(F)F)c4)cc3)CC2)C1 [Navitoclax] (partner 0.5 µM)
readout-value: 1.09
--
compound: Nc1ccn([C@@H]2O[C@H](CO)[C@@H](O)[C@@H]2O)c(=O)n1 [Cytarabine] + CS(=O)(=O)N1CCN(Cc2cc3nc(-c4cccc5[nH]ncc45)nc(N4CCOCC4)c3s2)CC1 [Pictilisib] (partner 1 µM)
readout-value: 0.334
--
compound: COc1cc2nccc(Oc3ccc(NC(=O)Nc4cc(C)on4)c(Cl)c3)c2cc1OC [Tivozanib] + CS(=O)(=O)CCNCc1ccc(-c2ccc3ncnc(Nc4ccc(OCc5cccc(F)c5)c(Cl)c4)c3c2)o1 [Lapatinib] (partner 2 µM)
readout-value: 1.28
--
compound: COc1cc2nccc(Oc3ccc(NC(=O)Nc4cc(C)on4)c(Cl)c3)c2cc1OC [Tivozanib] + NC(=O)Nc1cc(-c2cccc(F)c2)sc1C(=O)N[C@H]1CCCNC1 [AZD7762] (partner 0.2 µM)
readout-value: 0.893
--
compound: Nc1ccn([C@@H]2O[C@H](CO)[C@@H](O)[C@@H]2O)c(=O)n1 [Cytarabine] + O=C(c1cc(Cc2n[nH]c(=O)c3ccccc23)ccc1F)N1CCN(C(=O)C2CC2)CC1 [Olaparib] (partner 8 µM)
readout-value: 0.605
--
compound: COc1cc2nccc(Oc3ccc(NC(=O)Nc4cc(C)on4)c(Cl)c3)c2cc1OC [Tivozanib] + C[C@]1(O)C[C@@H](c2nc(-c3ccc4ccc(-c5ccccc5)nc4c3)c3c(N)nccn32)C1 [Linsitinib] (partner 1 µM)
readout-value: 0.996
